target: leptin receptor on reporter cells (SIE-luciferase reporter cells; Ba/F3-lepR reporter cells), P48357; test: cell-based or functional assay
Sequence (P48357 22-1165): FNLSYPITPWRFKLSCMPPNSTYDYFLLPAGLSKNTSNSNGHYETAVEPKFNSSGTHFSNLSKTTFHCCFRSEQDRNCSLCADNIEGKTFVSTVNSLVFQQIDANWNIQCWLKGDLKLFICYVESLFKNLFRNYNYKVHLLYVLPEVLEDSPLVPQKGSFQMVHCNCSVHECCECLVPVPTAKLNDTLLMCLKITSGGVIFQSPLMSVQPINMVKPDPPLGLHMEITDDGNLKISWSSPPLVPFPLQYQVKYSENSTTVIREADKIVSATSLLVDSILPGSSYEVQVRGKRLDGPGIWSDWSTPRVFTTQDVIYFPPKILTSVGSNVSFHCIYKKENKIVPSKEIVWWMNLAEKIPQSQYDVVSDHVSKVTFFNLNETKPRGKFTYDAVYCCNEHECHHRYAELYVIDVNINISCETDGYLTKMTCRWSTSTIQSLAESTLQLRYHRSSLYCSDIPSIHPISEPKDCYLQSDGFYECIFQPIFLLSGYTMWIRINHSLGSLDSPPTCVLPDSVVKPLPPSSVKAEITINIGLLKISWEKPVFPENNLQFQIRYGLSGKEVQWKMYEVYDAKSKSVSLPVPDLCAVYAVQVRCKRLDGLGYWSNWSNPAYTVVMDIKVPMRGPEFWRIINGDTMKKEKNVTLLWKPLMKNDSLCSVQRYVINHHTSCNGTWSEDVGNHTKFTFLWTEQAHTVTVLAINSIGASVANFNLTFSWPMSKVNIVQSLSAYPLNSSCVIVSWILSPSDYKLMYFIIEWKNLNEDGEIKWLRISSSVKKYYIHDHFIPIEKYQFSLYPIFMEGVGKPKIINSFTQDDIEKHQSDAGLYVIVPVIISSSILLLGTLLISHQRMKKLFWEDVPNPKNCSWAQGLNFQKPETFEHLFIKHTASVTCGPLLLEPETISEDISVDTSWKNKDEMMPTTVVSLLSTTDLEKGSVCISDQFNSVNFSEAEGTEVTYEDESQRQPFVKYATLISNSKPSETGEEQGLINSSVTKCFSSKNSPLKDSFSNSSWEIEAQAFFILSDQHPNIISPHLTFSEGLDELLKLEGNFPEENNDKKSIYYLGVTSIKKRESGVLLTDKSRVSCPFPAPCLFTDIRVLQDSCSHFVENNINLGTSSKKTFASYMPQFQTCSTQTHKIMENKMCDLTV
The reader will find reported EC50(M), Luciferase assay values listed item by item below.
State the answer as a number, implicitly in M.

[[record]]
binder = "S2H5 (antibody, V domains shown) VH: QVQLLQSGGGVVQPGRSLRLSCAASGFTFSSYGMHWVRQAPGKGLEWVAVISYDGSNKYYADSVKGRFTISRDNSKNTLYLQMNSLRAEDTAVYYCASRYENYFSLWGQGTLVTVSS VL: EIVLTQSPGTLSLSPGERATLSCRASQSVSSNYLAWYQQKPGQAPRLLIYGASSRPTGIPDRFSGSGSGTDFTLTISRLEPEDFAVYYCQQYAASPLTFGGGTKLEIK"
unitinfo = "M"
assayvalue = "7.38e-10"


Q: // fetch EC50(M), Luciferase assay given entry S2H7 (antibody, V domains shown) VH: QVQLLQSGGGVVQPGRSLRLSCAASGFTFSSYGMHWVRQAPGKGLEWVAVISYDGSNKYYADSVKGRFTISRDNSKNTLYLQMNSLRAEDTAVYYCATRYENYFSTWGQGTLVTVSS VL: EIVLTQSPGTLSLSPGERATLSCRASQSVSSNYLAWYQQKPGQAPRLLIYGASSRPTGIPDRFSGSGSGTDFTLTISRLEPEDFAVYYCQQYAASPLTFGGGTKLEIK
A: 4.94e-10

Q: // fetch EC50(M), Luciferase assay given entry S2H1 (antibody, V domains shown) VH: QVQLLQSGGGVVQPGRSLRLSCAASGFTFSSYGMHWVRQAPGKGLEWVAVISYDGSNKYYADSVKGRFTISRDNSKNTLYLQMNSLRAEDTAVYYCASLYENYFSLWGQGTLVTVSS VL: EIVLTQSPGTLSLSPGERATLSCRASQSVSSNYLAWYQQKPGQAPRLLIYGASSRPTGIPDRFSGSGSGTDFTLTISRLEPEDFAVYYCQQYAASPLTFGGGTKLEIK
A: 4.53e-10

Q: // fetch EC50(M), Luciferase assay given entry S2H2 (antibody, V domains shown) VH: QVQLLQSGGGVVQPGRSLRLSCAASGFTFSSYGMHWVRQAPGKGLEWVAVISYDGSNKYYADSVKGRFTISRDNSKNTLYLQMNSLRAEDTAVYYCATFRENYFEYWGQGTLVTVSS VL: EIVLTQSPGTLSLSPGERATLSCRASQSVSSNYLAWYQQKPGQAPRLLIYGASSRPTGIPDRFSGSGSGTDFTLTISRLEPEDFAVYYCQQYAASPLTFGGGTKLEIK
A: 6.52e-10
